Target: JAK3 (Homo sapiens (Human), UniProt P52333)
Sequence (P52333 whole entry): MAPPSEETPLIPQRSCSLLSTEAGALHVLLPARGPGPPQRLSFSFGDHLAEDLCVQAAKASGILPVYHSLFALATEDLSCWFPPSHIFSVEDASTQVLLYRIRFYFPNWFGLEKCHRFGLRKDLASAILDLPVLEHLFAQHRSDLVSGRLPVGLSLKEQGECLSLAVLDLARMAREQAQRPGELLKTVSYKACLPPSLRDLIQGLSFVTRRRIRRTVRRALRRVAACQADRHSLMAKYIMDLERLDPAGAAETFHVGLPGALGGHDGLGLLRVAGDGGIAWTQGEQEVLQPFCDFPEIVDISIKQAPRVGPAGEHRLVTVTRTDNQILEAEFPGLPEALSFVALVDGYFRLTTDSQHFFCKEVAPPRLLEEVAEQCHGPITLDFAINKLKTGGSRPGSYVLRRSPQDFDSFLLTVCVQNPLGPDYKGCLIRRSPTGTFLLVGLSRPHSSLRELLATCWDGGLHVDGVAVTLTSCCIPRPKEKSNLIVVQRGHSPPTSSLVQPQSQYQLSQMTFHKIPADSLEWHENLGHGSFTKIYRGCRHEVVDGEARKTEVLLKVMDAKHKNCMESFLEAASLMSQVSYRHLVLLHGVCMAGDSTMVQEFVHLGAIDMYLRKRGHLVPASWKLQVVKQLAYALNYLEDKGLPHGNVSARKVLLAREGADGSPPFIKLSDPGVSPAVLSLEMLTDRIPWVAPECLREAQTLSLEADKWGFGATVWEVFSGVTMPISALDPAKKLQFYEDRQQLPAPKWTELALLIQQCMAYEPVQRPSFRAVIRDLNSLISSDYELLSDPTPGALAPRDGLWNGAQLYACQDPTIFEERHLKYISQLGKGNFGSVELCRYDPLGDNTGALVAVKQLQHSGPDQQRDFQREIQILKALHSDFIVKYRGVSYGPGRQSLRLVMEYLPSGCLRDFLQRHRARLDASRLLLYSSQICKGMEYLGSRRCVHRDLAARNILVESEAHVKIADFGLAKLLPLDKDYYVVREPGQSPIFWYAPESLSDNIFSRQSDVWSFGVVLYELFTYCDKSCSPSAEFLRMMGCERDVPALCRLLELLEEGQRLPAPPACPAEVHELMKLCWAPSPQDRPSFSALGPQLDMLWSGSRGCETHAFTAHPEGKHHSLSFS
Experiment: Z'-LYTE enzymatic activity detection, JAK3
Format: biochemical
Conditions: test compound 30 nM
Source text: The basic principle of in vitro enzymatic activity assay is based on the difference between the intensities of fluorescence signals generated at different wavelengths (445 nm and 520 nm) from the phosphorylated substrate and non-phosphorylated substrate, in which the specific fluorescence-labeled substrate is phosphorylated by the kinase. […]
metric: JAK3 RV (ratio between the inhibitory rate of the test compound and that of Xeljanz)
Response field accepts a number only; no unit should be typed.

Ask: Look at this molecule and give its reported JAK3 RV (ratio between the inhibitory rate of the test compound and that of Xeljanz). C=CC(=O)N(C)c1cc(Nc2ncc(Cl)c(NCCCNC(=O)C3CCN(C)CC3)n2)ccc1F [Example 27]
Reply: 0.59

Ask: Look at this molecule and give its reported JAK3 RV (ratio between the inhibitory rate of the test compound and that of Xeljanz). C=CC(=O)N(C)c1cc(Nc2ncc(Cl)c(NCCCNC(=O)c3ccc(CC)cc3)n2)ccc1F [Example 79]
Reply: 0.96

Ask: Look at this molecule and give its reported JAK3 RV (ratio between the inhibitory rate of the test compound and that of Xeljanz). C=CC(=O)N(C)c1cc(Nc2ncc(Cl)c(NCCCNC(=O)c3cccc(C(F)(F)F)c3)n2)ccc1F [Example 91]
Reply: 0.99

Ask: Look at this molecule and give its reported JAK3 RV (ratio between the inhibitory rate of the test compound and that of Xeljanz). C=CC(=O)N(C)c1cc(Nc2ncc(F)c(NCCCNC(=O)c3ccc(C#N)cc3)n2)ccc1F [Example 60]
Reply: 0.79

Ask: Look at this molecule and give its reported JAK3 RV (ratio between the inhibitory rate of the test compound and that of Xeljanz). C=CC(=O)N(C)c1cc(Nc2ncc(Cl)c(NCCCNC(=O)c3ccccc3)n2)ccc1F [Example 87]
Reply: 0.99
